System name: human serum albumin (HSA) (Homo sapiens, UniProt P02768)
Construct: three analogous domains (I, II, and III) having amino acid residues of 1–195, 196–383, and 384–585
Sequence (P02768 25-609): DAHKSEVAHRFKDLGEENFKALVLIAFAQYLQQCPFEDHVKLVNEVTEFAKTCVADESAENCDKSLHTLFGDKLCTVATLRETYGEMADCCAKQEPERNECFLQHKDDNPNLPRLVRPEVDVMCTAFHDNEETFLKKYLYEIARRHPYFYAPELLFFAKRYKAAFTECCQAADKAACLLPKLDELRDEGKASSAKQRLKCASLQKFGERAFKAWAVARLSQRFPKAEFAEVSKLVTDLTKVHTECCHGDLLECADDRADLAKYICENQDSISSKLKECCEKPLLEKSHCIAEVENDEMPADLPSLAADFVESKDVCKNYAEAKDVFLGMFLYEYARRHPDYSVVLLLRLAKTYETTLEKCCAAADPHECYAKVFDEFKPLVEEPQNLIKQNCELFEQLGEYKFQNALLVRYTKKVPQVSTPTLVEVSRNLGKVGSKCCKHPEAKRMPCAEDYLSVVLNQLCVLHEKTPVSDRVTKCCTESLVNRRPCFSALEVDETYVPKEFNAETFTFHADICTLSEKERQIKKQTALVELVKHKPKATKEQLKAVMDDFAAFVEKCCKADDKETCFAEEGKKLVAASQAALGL
Assay details: Steady-state fluorescence quenching of HSA
Type: binding
Condition set: 296 K
Experimental: The steady-state fluorescence spectra were measured in the 290–450 nm range, at 296, 303, and 310 K, with the excitation wavelength at λ = 295 nm. To a 3.0 mL solution containing an appropriate concentration of HSA (1.00 × 10^−5 M), successive aliquots from a stock solution of each mesoionic under study (1.00 × 10^−3 M in DMSO) were added, with final concentrations of 0.17, 0.33, 0.50, 0.66, 0.83, 0.99, 1.15, and 1.32 × 10^−5 M. The addition was done manually by using a micro syringe. […]
As shown below, each of these molecules has a reported kq (bimolecular quenching rate constant) value.
Observation type: kq (bimolecular quenching rate constant) (M⁻¹ s⁻¹)

[[record]]
molecule = "Brc1ccc(Nc2n[n+](-c3ccccc3)c(/C=C/c3ccccc3)s2)cc1.[Cl-] [5d]"
system_name = "human serum albumin (HSA) (Homo sapiens, UniProt P02768)"
observation_type = "kq (bimolecular quenching rate constant)"
value = "2.61e+13"

[[record]]
molecule = "Cc1ccc(Nc2n[n+](-c3ccccc3)c(/C=C/c3ccccc3)s2)cc1.[Cl-] [5a]"
system_name = "human serum albumin (HSA) (Homo sapiens, UniProt P02768)"
observation_type = "kq (bimolecular quenching rate constant)"
value = "2.15e+13"

[[record]]
molecule = "Clc1ccc(Nc2n[n+](-c3ccccc3)c(/C=C/c3ccccc3)s2)cc1.[Cl-] [5c]"
system_name = "human serum albumin (HSA) (Homo sapiens, UniProt P02768)"
observation_type = "kq (bimolecular quenching rate constant)"
value = "2.35e+13"

[[record]]
molecule = "COc1ccc(Nc2n[n+](-c3ccccc3)c(/C=C/c3ccccc3)s2)cc1.[Cl-] [5b]"
system_name = "human serum albumin (HSA) (Homo sapiens, UniProt P02768)"
observation_type = "kq (bimolecular quenching rate constant)"
value = "1.99e+13"


----------
System name: human serum albumin (HSA) (Homo sapiens)
Construct: three analogous domains (I, II, and III) having amino acid residues of 1–195, 196–383, and 384–585
Assay details: Steady-state fluorescence quenching of HSA
Type: binding
Condition set: Ka (modified Stern–Volmer binding constant), 296 K
As shown below, each of these molecules has a reported Kd value.
Observation type: Kd (µM)

[[record]]
given_smiles = "Brc1ccc(Nc2n[n+](-c3ccccc3)c(/C=C/c3ccccc3)s2)cc1.[Cl-]"
value = 11.5

[[record]]
given_smiles = "Clc1ccc(Nc2n[n+](-c3ccccc3)c(/C=C/c3ccccc3)s2)cc1.[Cl-]"
value = 11.7

[[record]]
given_smiles = "Cc1ccc(Nc2n[n+](-c3ccccc3)c(/C=C/c3ccccc3)s2)cc1.[Cl-]"
value = 13

[[record]]
given_smiles = "COc1ccc(Nc2n[n+](-c3ccccc3)c(/C=C/c3ccccc3)s2)cc1.[Cl-]"
value = 11.7


----------
System name: human serum albumin (HSA) (Homo sapiens, UniProt P02768)
Construct: three analogous domains (I, II, and III) having amino acid residues of 1–195, 196–383, and 384–585
Assay details: Zeta potential of HSA (surface perturbation)
Assay type: binding
Condition set: HSA with 1.32 × 10^−5 M compound; HSA alone −9.15 ± 1.79
As shown below, each of these molecules has a reported ζ (zeta potential of HSA) value.
Observation type: ζ (zeta potential of HSA) (mV)

[[record]]
given_smiles = "Cc1ccc(Nc2n[n+](-c3ccccc3)c(/C=C/c3ccccc3)s2)cc1.[Cl-]"
unit_of_measure = "mV"
value = "−8.62"

[[record]]
given_smiles = "COc1ccc(Nc2n[n+](-c3ccccc3)c(/C=C/c3ccccc3)s2)cc1.[Cl-]"
unit_of_measure = "mV"
value = "−8.55"

[[record]]
given_smiles = "Clc1ccc(Nc2n[n+](-c3ccccc3)c(/C=C/c3ccccc3)s2)cc1.[Cl-]"
unit_of_measure = "mV"
value = "−8.77"

[[record]]
given_smiles = "Brc1ccc(Nc2n[n+](-c3ccccc3)c(/C=C/c3ccccc3)s2)cc1.[Cl-]"
unit_of_measure = "mV"
value = "−8.69"


Origin of values: paper PMC7321218
